B1: TPR t1 (parent)
chain: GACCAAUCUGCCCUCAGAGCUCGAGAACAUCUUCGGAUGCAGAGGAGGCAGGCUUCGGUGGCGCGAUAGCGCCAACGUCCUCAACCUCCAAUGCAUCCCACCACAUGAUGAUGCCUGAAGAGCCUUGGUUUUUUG

Variants of: B1
ASSAY PROCEDURE: polymerase ribozyme fitness, log enrichment relative to wild type (log ratio); higher = more active; in vitro selection for triplet polymerase activity
PROPERTY MEASURED: polymerase ribozyme fitness (log ratio)
A bare number is all that is needed in reply.

Example entries and their recorded answers appear below.
MUTATION CODE	VALUE MEASURED
U54G G71U A74U G113C A121U	-7.2
U129G	-1.1
C11G C28U	-2.03
C12A G17U G42U C53G U59C C101A	-5.66
U30G A95C U96C A105U A111C G120C	-6.71
C94A G110U	-2.28
A46C C72U A75U C123U	0.328
A2G C12U C56A C97U C124U	0.631
A37C G48C C53U U54A G60C C88A G93A C115U A121G	-6.81
C8U G17U G36C G71U C82G	-4.44

// polymerase ribozyme fitness (log ratio) value for G60A A108G G117A : -3.74
